IC50 values, listed per item
target: mGlyT-1b (Mus musculus, UniProt P28571); construct: host or cells: Flp-in-CHO; assay: Glycine uptake inhibition assay (mGlyT-1b), [3H]-glycine uptake in Flp-in-CHO cells; type: cell-based; settings: Flp-in-CHO cells stably transfected with mGlyT1b cDNA, 20 min at 22° C. preincubation
Sequence (P28571 1-651 isoform P28571-2): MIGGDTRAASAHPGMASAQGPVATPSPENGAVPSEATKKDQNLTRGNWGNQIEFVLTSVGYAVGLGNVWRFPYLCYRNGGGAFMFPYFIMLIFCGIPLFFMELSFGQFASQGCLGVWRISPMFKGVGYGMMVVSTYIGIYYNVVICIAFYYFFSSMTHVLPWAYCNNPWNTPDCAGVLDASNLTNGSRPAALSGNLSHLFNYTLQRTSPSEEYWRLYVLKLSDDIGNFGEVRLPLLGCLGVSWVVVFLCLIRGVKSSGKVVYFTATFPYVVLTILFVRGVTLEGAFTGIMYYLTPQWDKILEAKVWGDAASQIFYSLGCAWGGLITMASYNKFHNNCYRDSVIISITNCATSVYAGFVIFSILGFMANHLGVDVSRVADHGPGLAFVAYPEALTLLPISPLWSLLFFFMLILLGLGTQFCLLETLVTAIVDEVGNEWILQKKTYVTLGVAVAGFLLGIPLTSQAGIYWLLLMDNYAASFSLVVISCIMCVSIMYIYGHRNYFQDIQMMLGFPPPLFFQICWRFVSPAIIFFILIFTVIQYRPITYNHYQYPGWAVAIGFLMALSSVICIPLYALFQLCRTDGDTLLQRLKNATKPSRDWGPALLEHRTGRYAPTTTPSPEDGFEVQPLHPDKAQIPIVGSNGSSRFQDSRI

| compound | study system | measure unit | IC50 |
| --- | --- | --- | --- |
| O=C(NC(c1ccccc1)C1(N2CCCC2)CCC1)c1ccc(C(F)(F)F)cc1C(F)(F)F (stereo not drawn) [Example 15] | mGlyT-1b (Mus musculus, UniProt P28571) | µM | 0.0312 |
| CSc1cc(C(F)(F)F)ccc1C(=O)NC(c1ccccc1)C1(N2CCCC2)CCC1 (single isomer, unassigned; (+)) [Example 35] | mGlyT-1b (Mus musculus, UniProt P28571) | µM | 0.0098 |
| COc1cc(C(F)(F)F)cc(SC)c1C(=O)NC(c1ccccc1)C1(N2C3CCC2COC3)CCC1 (racemic) [Example 71] | mGlyT-1b (Mus musculus, UniProt P28571) | µM | 0.0521 |
| O=C(NC(c1ccccc1)C1(N2CCCC2)CCC1)c1ccccc1C(F)(F)F (stereo not drawn) [Example 44] | mGlyT-1b (Mus musculus, UniProt P28571) | µM | 0.0951 |
| COc1cc(Cl)ccc1C(=O)NC(c1ccccc1)C1(N2CCCC2)CCC1 (stereo not drawn) [Example 47] | mGlyT-1b (Mus musculus, UniProt P28571) | µM | 0.0724 |
| COc1cc(C(F)(F)F)cc(C(F)(F)F)c1C(=O)NC(c1ccccc1)C1(N2CCCC2)CCC1 (stereo not drawn) [Example 14] | mGlyT-1b (Mus musculus, UniProt P28571) | µM | 0.0455 |
| CSc1cc(C(F)(F)F)cc(C(F)(F)F)c1C(=O)NC(c1ccccc1)C1(N2CCCC2)CCC1 (stereo not drawn) [Example 9] | mGlyT-1b (Mus musculus, UniProt P28571) | µM | 0.0295 |
| CSc1cc(C(F)(F)F)ccc1C(=O)NC(c1ccccc1)C1(N2CC3(COC3)C2)CCC1 (stereo not drawn) [Example 74] | mGlyT-1b (Mus musculus, UniProt P28571) | µM | 0.0101 |
| Cc1cc(F)ccc1C(=O)NC(c1ccccc1)C1(N2CCCC2)CCC1 (stereo not drawn) [Example 57] | mGlyT-1b (Mus musculus, UniProt P28571) | µM | 0.0596 |
| CSc1cc(C(F)(F)F)cc(C(F)(F)F)c1C(=O)NC(c1ccccc1)C1(N2CCCC2)CC1 (single isomer, unassigned; (-)) [Example 29] | mGlyT-1b (Mus musculus, UniProt P28571) | µM | 0.0509 |
| CCc1cc(C(F)(F)F)cc(C(F)(F)F)c1C(=O)NC(c1ccccc1)C1(N2CCCC2)CCC1 (stereo not drawn) [Example 37] | mGlyT-1b (Mus musculus, UniProt P28571) | µM | 0.0398 |
| CSc1cc(C(F)(F)F)ccc1C(=O)NC(c1cccc(F)c1)C1(N2CCCC2)CCC1 (stereo not drawn) [Example 55] | mGlyT-1b (Mus musculus, UniProt P28571) | µM | 0.0139 |
| CSc1cc(C(F)(F)F)ccc1C(=O)NC(c1ccccc1)C1(N(C)C)CCC1 (stereo not drawn) [Example 50] | mGlyT-1b (Mus musculus, UniProt P28571) | µM | 0.01 |
| CSc1cc(C(F)(F)F)ccc1C(=O)NC(c1cc(F)cc(F)c1)C1(N2CCCC2)CCC1 (stereo not drawn) [Example 40] | mGlyT-1b (Mus musculus, UniProt P28571) | µM | 0.0322 |
| CSc1cc(C(F)(F)F)cc(C(F)(F)F)c1C(=O)NC(c1ccccc1)C1(N2CCCC2)CCC1 (single isomer, unassigned; (+)) [Example 30] | mGlyT-1b (Mus musculus, UniProt P28571) | µM | 0.047 |
